meta.source: patent US20160207969A1

System: Trubrum
experiment description: MIC of antimicrobial peptides (Table 3)
Type: cell-based
measurement name: Organism MIC

[[record]]
seq = "VLPFPAIPLSRRRACVAAPRPRSRQRAS (Antimicrobial peptide) [PF-168]"
assay_result = "Trubrum, 50 μM"

[[record]]
seq = "MKRRRCNWCGKLFYLEEKSKEAYCCKECRKKAKKVKK (Antimicrobial peptide) [PF-307]"
assay_result = "Trubrum, 50 μM"

[[record]]
seq = "WSRVPGHSDTGWKVWHRW (Antimicrobial peptide) [PF-547]"
assay_result = "Trubrum, 25 μM"

[[record]]
seq = "MIRIRSPTKKKLNRNSISDWKSNTSGRFFY (Antimicrobial peptide) [PF-283]"
assay_result = "Trubrum, 50 μM"

[[record]]
seq = "LSLATFAKIFMTRSNWSLKRFNRL (Antimicrobial peptide) [PF-278]"
assay_result = "Trubrum, 50 μM"

[[record]]
seq = "GSVIKKRRKRMAKKKHRKLLKKTRIQRRRAGK [PF-527]"
assay_result = "Trubrum, 25 μM"

